# assayedTarget: T1, marmoset IL-17A (marmoset, IL-17A is a disulfide-linked homodimer. One chain is given.)
# T1 chain: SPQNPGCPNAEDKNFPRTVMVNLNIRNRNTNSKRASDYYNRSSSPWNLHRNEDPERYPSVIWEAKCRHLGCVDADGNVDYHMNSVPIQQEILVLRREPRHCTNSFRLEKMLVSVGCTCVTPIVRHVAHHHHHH
# protocolText: ELISA, coated IL-17A
quantityMeasured: OD (OD)
The figure you give is taken to be in OD; do not add the unit.

q: Return OD for the following binder: 13B03 (VHH, Class 4; also called IL17MS13B03) VHH: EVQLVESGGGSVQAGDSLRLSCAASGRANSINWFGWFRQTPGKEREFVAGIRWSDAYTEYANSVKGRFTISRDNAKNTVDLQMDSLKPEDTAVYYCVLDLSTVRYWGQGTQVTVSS
a: 1.94

q: Return OD for the following binder: 17C01 (VHH, Class 4) VHH: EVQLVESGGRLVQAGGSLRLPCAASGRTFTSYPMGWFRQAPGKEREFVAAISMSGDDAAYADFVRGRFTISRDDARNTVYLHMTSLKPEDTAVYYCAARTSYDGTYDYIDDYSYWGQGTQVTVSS
a: 1.84

q: Return OD for the following binder: 09G10 (VHH, Class 2) VHH: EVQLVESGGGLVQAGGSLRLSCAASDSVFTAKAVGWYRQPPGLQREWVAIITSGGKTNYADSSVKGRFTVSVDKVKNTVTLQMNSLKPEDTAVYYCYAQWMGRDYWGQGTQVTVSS
a: 1.58

q: Return OD for the following binder: 07B09 (VHH, Class 3) VHH: EVQLVESGGGLVQAGGSLRLSCGASGGTFSSYATGWFRQAPGKEREFVAVLRWSDGHTAYADSVKGRFTISRDGAKNTMYLQMSSLKPEDTAIYYCTTATRPGEWDYWGQGTQVTVSS
a: 0.005
